B1: JUNB (parent)
chain: FVKALDDLHKMNHVTPPNVSLGAT

Variants of: B1
Assay: protein stability index of a GFP-peptide fusion (GPS, HEK-293T) (PSI 1-6); higher = more stable;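 note: lentivirally expressed fusions sorted by FACS into six bins by GFP to DsRed ratio, PSI derived from sequencing read proportions per bin multiplied by bin number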
Settings: c terminus: a fixed tail appended
# label = y if protein stability index >= 2 else n

sequenceInput: FEKALDDLHKMNHVTPPNVSLGAT
labelValue: y
//
sequenceInput: FVKALDDLHKMNHVTRPNVSLGAT
labelValue: n
//
sequenceInput: FVKALDDLHKMNHVTMPNVSLGAT
labelValue: n
//
sequenceInput: FVKALDDTHKMNHVTPPNVSLGAT
labelValue: y
//
sequenceInput: FVKALDDLHKMNHVTPPTVSLGAT
labelValue: n
//
sequenceInput: FVKALDDLHKMLHVTPPNVSLGAT
labelValue: y
//
sequenceInput: FVKALDDLHKMNHVTPPNVSLGIT
labelValue: n
//
sequenceInput: FVKALDDRHKMNHVTPPNVSLGAT
labelValue: n
//
sequenceInput: WVKALDDLHKMNHVTPPNVSLGAT
labelValue: y
//
sequenceInput: FVKALDDLHKMNHVTPPNVPLGAT
labelValue: y
//
sequenceInput: FVKALDDLHKMNHVTPPNVGLGAT
labelValue: y
//
sequenceInput: FVKALDDLHVMNHVTPPNVSLGAT
labelValue: n
//
sequenceInput: FVKALDDLHKMNHVTPPNVSLGAW
labelValue: n
//
sequenceInput: SVKALDDLHKMNHVTPPNVSLGAT
labelValue: y
//
sequenceInput: FVKALDDNHKMNHVTPPNVSLGAT
labelValue: n
//
sequenceInput: FVKALDDLHKMNHVTQPNVSLGAT
labelValue: y
//
sequenceInput: FVKALDDLHKMYHVTPPNVSLGAT
labelValue: y
//
sequenceInput: FVKALCDLHKMNHVTPPNVSLGAT
labelValue: y
//
sequenceInput: FVHALDDLHKMNHVTPPNVSLGAT
labelValue: y
//
sequenceInput: FVKALDDLHKMNHVTPPNVSLGLT
labelValue: y
//
sequenceInput: IVKALDDLHKMNHVTPPNVSLGAT
labelValue: y
//
sequenceInput: FVKALDDLHKMHHVTPPNVSLGAT
labelValue: y
//
sequenceInput: FVKALDDLHKMNHVQPPNVSLGAT
labelValue: y
//
sequenceInput: FVKALDDLHKMGHVTPPNVSLGAT
labelValue: y
//
sequenceInput: FVKALDDLHKMNLVTPPNVSLGAT
labelValue: y
//
sequenceInput: FVKALDDLHKMNHVTPPMVSLGAT
labelValue: y
//
sequenceInput: FVKALDDLHKMNHVTPPNVELGAT
labelValue: y
//
sequenceInput: FVKALDDLHKMNHVTPPNVWLGAT
labelValue: y
//
sequenceInput: FVKALDDLHKMNHVTPPNVKLGAT
labelValue: y
//
sequenceInput: FVKALDDLHKMNHVTPQNVSLGAT
labelValue: y
//
sequenceInput: FVKALDDLHKWNHVTPPNVSLGAT
labelValue: y
//
sequenceInput: FVKALDCLHKMNHVTPPNVSLGAT
labelValue: y
//
sequenceInput: FVKALDDLHKMNHVTPPNVSSGAT
labelValue: y
//
sequenceInput: FVKALDDLHKMNHVTPMNVSLGAT
labelValue: y
//
sequenceInput: RVKALDDLHKMNHVTPPNVSLGAT
labelValue: y
//
sequenceInput: FVKALDDQHKMNHVTPPNVSLGAT
labelValue: n
//
sequenceInput: FVKALDDLHKMNMVTPPNVSLGAT
labelValue: y
//
sequenceInput: FNKALDDLHKMNHVTPPNVSLGAT
labelValue: y
//
sequenceInput: FVKALNDLHKMNHVTPPNVSLGAT
labelValue: y
//
sequenceInput: FVKALDDLHKMNHVTPPNVSLGGT
labelValue: n
//
sequenceInput: FVKALDDLHKMNHVTPPNVSLEAT
labelValue: y
//
sequenceInput: FVKALDDLHKMNHTTPPNVSLGAT
labelValue: n
//
sequenceInput: FVKALDDLHKMNHVTPPNVSLGTT
labelValue: n
